Values from patent US20060247320A1

# Lookup of reported pIC50 keyed by entry
- target of assay: KSP motor domain (Homo sapiens, UniProt P52732)
- Sequence (P52732 18-359 limits assumed): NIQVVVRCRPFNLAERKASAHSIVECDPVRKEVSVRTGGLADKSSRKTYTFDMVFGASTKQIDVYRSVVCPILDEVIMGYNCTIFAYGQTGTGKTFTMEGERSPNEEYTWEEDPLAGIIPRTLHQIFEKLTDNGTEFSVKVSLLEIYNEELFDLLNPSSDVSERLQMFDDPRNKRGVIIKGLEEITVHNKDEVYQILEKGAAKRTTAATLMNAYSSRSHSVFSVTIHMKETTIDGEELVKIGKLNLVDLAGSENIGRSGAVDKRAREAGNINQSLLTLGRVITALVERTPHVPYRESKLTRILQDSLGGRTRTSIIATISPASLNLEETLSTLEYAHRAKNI
- experiment description: biochemical
- condition info: KSP inhibitory activity, end-point assay; class symbols (Table 1); read-out: IC50
pIC50: −log10 of the molar value.

Completed entries (count: 5):
{"compound": "Cn1ccnc1C(=O)Nc1cccc([C@@H](CN)NC(=O)c2cc3cc4c(nc3s2)CC[C@@H](C(C)(C)C)C4)c1 [Example 250]", "target of assay": "KSP motor domain (Homo sapiens, UniProt P52732)", "pIC50": "> 7.00"}
{"compound": "CC(C)(C)C1CCc2nc3sc(C(=O)NCCN)cc3cc2C1 (stereo not drawn) [Example 99]", "target of assay": "KSP motor domain (Homo sapiens, UniProt P52732)", "pIC50": "> 7.00"}
{"compound": "Cc1onc(-c2ccccc2)c1C(=O)Nc1cccc([C@@H](CN)NC(=O)c2cc3cc4c(nc3s2)CC[C@@H](C(C)(C)C)C4)c1 [Example 230]", "target of assay": "KSP motor domain (Homo sapiens, UniProt P52732)", "pIC50": "6.00 to 7.00"}
{"compound": "C[C@H]1CN(C(=O)Nc2cccc([C@@H](CN)NC(=O)c3cc4cc5c(nc4s3)CC[C@@H](C(C)(C)C)C5)c2)CCN1 [Example 280]", "target of assay": "KSP motor domain (Homo sapiens, UniProt P52732)", "pIC50": "6.00 to 7.00"}
{"compound": "CN(C)Cc1cc2cc3c(nc2s1)CCC(C(C)(C)C)C3 (stereo not drawn) [Example 152]", "target of assay": "KSP motor domain (Homo sapiens, UniProt P52732)", "pIC50": "5.00 to 6.00"}

Now turn to the next compound.
(Q) Any idea what pIC50 was measured for CC(C)(C)C1CCc2nc3sc(C(=O)NN4CCOCC4)cc3cc2C1 (stereo not drawn) [Example 200] ?
(A) 5.00 to 6.00
